Test system: TK-10
experimental.details: Cytotoxicity against human TK10 cells assessed as cell growth at 10 uM
Type: functional
particulars: Homo sapiens, TK-10; read-out: Activity
value.type: growth at 10 µM (%)

[[record]]
smiles_input = "CC(=O)c1ccccc1-c1ccc(-c2ccnc(NC(=O)Nc3cc(C(F)(F)F)cc(C(F)(F)F)c3)n2)cn1.Cl"
assay_value = 90.3

[[record]]
smiles_input = "Cc1cc(-c2cccnc2)nc(NC(=O)c2cccc(C(F)(F)F)c2)n1"
assay_value = 102

[[record]]
smiles_input = "FC(F)(F)c1cc(Nc2nccc(-c3ccc(Nc4ccccc4)nc3)n2)cc(C(F)(F)F)c1"
assay_value = 119

[[record]]
smiles_input = "CC(=O)c1ccc(-c2ccc(-c3ccnc(Nc4cc(C(F)(F)F)cc(C(F)(F)F)c4)n3)cn2)cc1"
assay_value = 106

[[record]]
smiles_input = "Cc1ccc(Nc2nc(C)cc(-c3cccnc3)n2)c(C)c1"
assay_value = 118

[[record]]
smiles_input = "CC(=O)c1ccccc1-c1ccc(-c2ccnc(NC(=O)Nc3cc(N4CCOCC4)cc(C(F)(F)F)c3)n2)cn1"
assay_value = 47.8

[[record]]
smiles_input = "CC(=O)Nc1cccc(-c2ccc(-c3ccnc(NC(=O)Nc4cc(C(F)(F)F)cc(C(F)(F)F)c4)n3)cn2)c1.Cl"
assay_value = 76

[[record]]
smiles_input = "O=C(Nc1cc(C(F)(F)F)cc(C(F)(F)F)c1)Nc1nccc(-c2ccc(Nc3ccccc3)nc2)n1"
assay_value = 123

[[record]]
smiles_input = "c1ccc(-c2ccc(-c3ccnc(Nc4ccc(N(c5ccccc5)c5ccccc5)cc4)n3)cn2)cc1"
assay_value = 113

[[record]]
smiles_input = "FC(F)(F)c1cc(Nc2nccc(-c3ccc(-c4ccccc4)nc3)n2)cc(C(F)(F)F)c1"
assay_value = 99.5

[[record]]
smiles_input = "FC(F)(F)c1cc(Nc2nccc(-c3cccnc3)n2)cc(C(F)(F)F)c1"
assay_value = 106


---

System: NCI-H460
experimental.details: Cytotoxicity against human NCI-H460 cells assessed as cell growth at 10 uM
Assay type: functional
particulars: Homo sapiens, NCI-H460; read-out: Activity
# growth at 10 µM values compiled below
value.type: growth at 10 µM (%)

[[record]]
smiles_input = "O=C(Nc1cc(C(F)(F)F)cc(C(F)(F)F)c1)Nc1nccc(-c2ccc(Nc3ccccc3)nc2)n1"
assay_value = 103

[[record]]
smiles_input = "FC(F)(F)c1cc(Nc2nccc(-c3ccc(Nc4ccccc4)nc3)n2)cc(C(F)(F)F)c1"
assay_value = 109

[[record]]
smiles_input = "CC(=O)Nc1cccc(-c2ccc(-c3ccnc(NC(=O)Nc4cc(C(F)(F)F)cc(C(F)(F)F)c4)n3)cn2)c1.Cl"
assay_value = 34.5

[[record]]
smiles_input = "c1ccc(-c2ccc(-c3ccnc(Nc4ccc(N(c5ccccc5)c5ccccc5)cc4)n3)cn2)cc1"
assay_value = 84.4

[[record]]
smiles_input = "FC(F)(F)c1cc(Nc2nccc(-c3ccc(-c4ccccc4)nc3)n2)cc(C(F)(F)F)c1"
assay_value = 107

[[record]]
smiles_input = "CC(=O)c1ccccc1-c1ccc(-c2ccnc(NC(=O)Nc3cc(N4CCOCC4)cc(C(F)(F)F)c3)n2)cn1"
assay_value = 87.4

[[record]]
smiles_input = "Cc1ccc(Nc2nc(C)cc(-c3cccnc3)n2)c(C)c1"
assay_value = 95.7

[[record]]
smiles_input = "CC(=O)c1ccccc1-c1ccc(-c2ccnc(NC(=O)Nc3cc(C(F)(F)F)cc(C(F)(F)F)c3)n2)cn1"
assay_value = 95.9

[[record]]
smiles_input = "FC(F)(F)c1cc(Nc2nccc(-c3cccnc3)n2)cc(C(F)(F)F)c1"
assay_value = 103

[[record]]
smiles_input = "Cc1cc(-c2cccnc2)nc(NC(=O)c2cccc(C(F)(F)F)c2)n1"
assay_value = 103

[[record]]
smiles_input = "CC(=O)c1ccc(-c2ccc(-c3ccnc(Nc4cc(C(F)(F)F)cc(C(F)(F)F)c4)n3)cn2)cc1"
assay_value = 106

